Each entry below carries its reported IC50.
target: Wee-1 kinase (Homo sapiens)
Sequence (P30291 whole entry): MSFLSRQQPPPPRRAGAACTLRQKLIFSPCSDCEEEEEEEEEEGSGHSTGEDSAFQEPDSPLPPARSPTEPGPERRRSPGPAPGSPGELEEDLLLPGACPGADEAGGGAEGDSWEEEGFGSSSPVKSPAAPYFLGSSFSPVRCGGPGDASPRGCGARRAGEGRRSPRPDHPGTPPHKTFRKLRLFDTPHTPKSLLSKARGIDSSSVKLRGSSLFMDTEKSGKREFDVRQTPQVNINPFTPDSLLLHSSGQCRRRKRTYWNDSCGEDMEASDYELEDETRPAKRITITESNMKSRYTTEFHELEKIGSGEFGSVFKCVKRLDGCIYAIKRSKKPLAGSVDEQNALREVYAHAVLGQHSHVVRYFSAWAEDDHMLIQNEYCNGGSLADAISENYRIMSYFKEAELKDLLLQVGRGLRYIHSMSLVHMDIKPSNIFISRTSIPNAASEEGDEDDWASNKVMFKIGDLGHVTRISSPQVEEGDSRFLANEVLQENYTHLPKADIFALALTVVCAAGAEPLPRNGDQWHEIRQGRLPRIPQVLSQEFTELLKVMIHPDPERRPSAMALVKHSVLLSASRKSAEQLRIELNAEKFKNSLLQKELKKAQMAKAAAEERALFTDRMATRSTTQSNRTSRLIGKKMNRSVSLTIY

| chemical_string | IC50 |
| --- | --- |
| C=CCn1c(=O)c2cnc(Nc3ccc(N4CCN(C)CC4)cc3)nc2n1-c1ccc(=O)n(C)n1 | > 100 nM |
| C=CCn1c(=O)c2cnc(Nc3ccc(N4CCN[C@H](C)C4)c(C)c3)nc2n1-c1ccc(=O)n(C(C)C)n1 | ≤ 30 nM |
| C=CCn1c(=O)c2cnc(Nc3ccc(N4CC5(CCNC5)C4)cc3)nc2n1-c1ccc(=O)n(C(C)C)n1 | ≤ 30 nM |
| C=CCn1c(=O)c2cnc(Nc3ccc(N4CCN(C)CC4)cc3)nc2n1-c1cc(C#N)c(=O)n(C(C)C)c1 | 30 to 100 nM |
| C=CCn1c(=O)c2cnc(Nc3ccc4c(ccn4C4CCNCC4)c3)nc2n1-c1ccc(=O)n(C(C)C)n1 | ≤ 30 nM |
| C=CCn1c(=O)c2cnc(Nc3ccc4c(c3)CN(C)CC43CC3)nc2n1-c1ccc(=O)n(C(C)(C)C)n1 | ≤ 30 nM |
| C=CCn1c(=O)c2cnc(Nc3ccc(N4CCN(C)CC4)cc3)nc2n1-c1cc(C)c(=O)n(C(C)C)n1 | ≤ 30 nM |
